Reference source: PubChem BioAssay (NCI)

# Test system: HT29 colon
# EXPERIMENTAL PROTOCOL: NCI tumour cell line growth inhibition, 48 h
Reported TGI values for a set of compounds

[
  {
    "COMPOUND": "COC(=O)C1=C(c2cc(OC)c(OC)c(OC)c2)O[C@H](c2ccc3c(c2)OCO3)[C@H]1COC(C)=O",
    "TGI": "95.7 µM"
  },
  {
    "COMPOUND": "O=S(=O)(O)c1ccc(Nc2ccnc3cc(Cl)ccc23)cc1",
    "TGI": "> 100 µM"
  },
  {
    "COMPOUND": "COC(=O)C(C(=O)OC)C1CC(=O)c2c(Br)sc(Br)c21 (stereo not drawn)",
    "TGI": "32.9 µM"
  },
  {
    "COMPOUND": "Oc1ccc2ccccc2c1OCc1nnc(CCCCCCCCc2nnc(COc3c(O)ccc4ccccc34)o2)o1",
    "TGI": "> 100 µM"
  },
  {
    "COMPOUND": "Cn1c(O)c(N=NC(N)=S)c2ccccc21",
    "TGI": "> 100 µM"
  },
  {
    "COMPOUND": "C=C(C)[C@@H]1CC[C@]2(C)[C@H](CC=C3[C@@H]4[C@H](C)[C@@H](C)CC[C@]4(CO)CC[C@]32C)[C@@]1(C)CCCN",
    "TGI": "2.04 µM"
  },
  {
    "COMPOUND": "CN/N=C(\\C(=O)Nc1ccc([N+](=O)[O-])cc1[N+](=O)[O-])C1NC(=O)NC1=O (stereo not drawn)",
    "TGI": "> 100 µM"
  },
  {
    "COMPOUND": "COc1ccc(NC(=S)NNC(=O)c2cc(-c3ccccc3)nc3ccccc23)cc1",
    "TGI": "39.3 µM"
  },
  {
    "COMPOUND": "CCCCN(CCCC)C(=O)C(=O)CC(=O)/C=C/c1ccccc1",
    "TGI": "> 100 µM"
  },
  {
    "COMPOUND": "COc1ccc(C(C)NNC(=O)c2ccncc2)cc1F (stereo not drawn)",
    "TGI": "> 100 µM"
  },
  {
    "COMPOUND": "CC(C)(O)CCC(O)C(C)(O)C1CCC2(O)C3=CC(=O)C4(O)CC(O)C(O)CC4(C)C3CCC12C (stereo not drawn) (tested in a mixture with another compound)",
    "TGI": "> 100 µM"
  },
  {
    "COMPOUND": "c1ccc(CNc2ncnc3n[nH]nc23)cc1",
    "TGI": "> 100 µM"
  },
  {
    "COMPOUND": "C[C@@H]1OCC(O)C([C@H]2OC(c3ccccc3)=N[C@H]2CO)O1 (stereo partly drawn)",
    "TGI": "> 100 µM"
  },
  {
    "COMPOUND": "C=C1C(=O)O[C@H]2C/C(C=O)=C\\[C@H]3O[C@H]3/C(COC(=O)C(C)C)=C/CC12 (stereo partly drawn)",
    "TGI": "12.8 µM"
  },
  {
    "COMPOUND": "C=CCn1c(=O)c2ccccc2[n+]2c(-c3cccc([N+](=O)[O-])c3)csc12",
    "TGI": "> 100 µM"
  },
  {
    "COMPOUND": "Cc1ccc(C)c2c1CCc1cc3ccccc3nc1-2",
    "TGI": "> 100 µM"
  },
  {
    "COMPOUND": "Cc1c(N)nc(C(CC(N)=O)NCC(N)C(N)=O)nc1C(=O)NC(C(=O)NC(C)C(O)C(C)C(=O)NC(C(=O)NCCc1nc(-c2nc(C(=O)NCCCNCCCCN)cs2)cs1)C(C)O)C(OC1OC(CO)C(O)C(O)C1OC1OC(CO)C(O)C(OC(N)=O)C1O)c1cnc[nH]1 (stereo not drawn)",
    "TGI": "> 10 µM"
  },
  {
    "COMPOUND": "COc1cc(/C=C/c2cc(/C=C/c3ccc(O)c(OC)c3)[nH]c(=O)n2)ccc1O",
    "TGI": "2.67 µM"
  }
]
